- Test system: Nicotinate mononucleotide adenylyltransferase NadD (Staphylococcus aureus N315)
- EXPERIMENT NOTES: S. aureus NadD enzyme activity blockers – biochemical, colorimetric, single concentration, confirmation (AID 624309)
- CONDITION NOTES: purified S. aureus NadD, colorimetric enzyme assay; at 20 µM; stronger effect = higher value
The campaign covered roughly 2,000 compounds. About 260 (13%) were called active. These entries were drawn from the full list.
ASSAY READOUT: inhibition (%)
Write the value in % as a bare number.

input: Report inhibition for N#CC1=C(SCc2ccc(C#N)cc2)N=C(N)C(c2nc(-c3ccccc3)cs2)C12CCCCC2 (stereo unspecified) please.
output: 24.2

input: Report inhibition for Cc1cc(C)c(S(=O)(=O)NN=C2c3ccccc3[C@H]3Cc4csc[n+]4[C@@H]23)c(C)c1 please.
output: 30.1

input: Report inhibition for COc1ccc(NS(=O)(=O)c2cc(NC(=O)CC(=O)c3ccc([N+](=O)[O-])cc3)ccc2C)cc1 please.
output: 28.1

input: Report inhibition for CC(C)c1ccc2c(c1)c(SC(C)(C)C)c(CC(C)(C)C(=O)O)n2Cc1ccc(Cl)cc1 please.
output: 28.1

input: Report inhibition for C[C@H](CO)N1C[C@H](C)[C@H](CN(C)C(=O)Nc2ccc(C(F)(F)F)cc2)Oc2c(NC(=O)c3ccncc3)cccc2C1=O please.
output: 27.5

input: Report inhibition for COc1cccc2sc(NNC(=O)c3nc4ccccc4s3)nc12 please.
output: 43.7

input: Report inhibition for CCOC(=O)c1ccccc1N1C(=O)C2Sc3[nH]c(=O)sc3C(/C=C/c3ccccc3)C2C1=O (stereo unspecified) please.
output: 57.6

input: Report inhibition for Cc1ccc(Cc2cnc(NC(=O)/C(C#N)=C/c3ccc(-c4cccc([N+](=O)[O-])c4)o3)s2)cc1 please.
output: 5.75

input: Report inhibition for O=C(O)c1ccc(COCC(F)(F)F)cc1 please.
output: 10.3

input: Report inhibition for Cc1ccc(Cn2c(=N)c(S(=O)(=O)c3ccc(C)cc3)cc3c(=O)n4ccccc4nc32)cc1 please.
output: 20.4

input: Report inhibition for C/C(=N\NC(=O)CNc1cccc2ccccc12)c1ccc(Br)s1 please.
output: 8.07

input: Report inhibition for O=C1Nc2cc(C(=O)N3CCN(c4ccc(F)cc4)CC3)ccc2NC1CSCc1cccc(F)c1 (stereo unspecified) please.
output: 41.8

input: Report inhibition for COCCCn1c(=O)/c(=C/c2ccccc2OC(C)C)s/c1=C(\C#N)C(=O)Nc1ccc(C(=O)O)cc1 please.
output: 12.9

input: Report inhibition for O=C(CSc1nc2ccccc2c(=O)[nH]1)Nc1nc(-c2ccc(Br)cc2)cs1 please.
output: 6.59

input: Report inhibition for Cc1oc2c(C)c3oc(=O)c(CC(=O)N[C@@H](CC(C)C)C(=O)N[C@@H](Cc4ccccc4)C(=O)O)c(C)c3cc2c1C please.
output: 43.8

input: Report inhibition for Cc1ccc(/C=C/C(=O)Nc2ccc([N+](=O)[O-])c(NC(=O)/C=C/c3ccc(C)o3)c2)o1 please.
output: 60.6

input: Report inhibition for Cn1c2ccccc2c(=O)c2c(=O)n(Cc3ccco3)c(COc3ccccc3)nc21 please.
output: 10.4

input: Report inhibition for O=C(Nc1ccc(NC(=O)c2cccs2)cc1)c1ccc2ccccc2c1 please.
output: -0.66

input: Report inhibition for CCCCCCC(=O)Nc1nc(C)c(-c2csc(Nc3cc(Cl)ccc3OC)n2)s1 please.
output: 5.75

input: Report inhibition for CCc1ccc(-n2c(=S)sc3c(=O)n(-c4ccccc4OC)c(=S)[nH]c32)cc1 please.
output: 5.54

input: Report inhibition for O=C(N/N=C/c1ccc(Cl)cc1)c1nc2ccc([N+](=O)[O-])cc2c(=O)[nH]1 please.
output: 9.54

input: Report inhibition for Cc1cccc(NC(=O)c2sc3nc4c(c(-c5ccco5)c3c2N)CCC4)c1 please.
output: 21.1

input: Report inhibition for Nc1nc2n(n1)C(c1ccco1)CC(c1ccc(Cl)c(Cl)c1)N2 (stereo unspecified) please.
output: 13.2

input: Report inhibition for O=C(NCC(=O)N1CCN(c2ccccc2O)CC1)c1ccc2ccccc2c1 please.
output: 34.8

input: Report inhibition for Cc1ccc(C(=O)COC(=O)c2cccc(N3C(=O)c4c(C)nc5ccccc5c4C3=O)c2)cc1C please.
output: 0.6

input: Report inhibition for COc1ccc(C(=O)/C=C/c2ccc(-c3ccccc3)cc2)cc1CSCC(=O)O please.
output: 46.5

input: Report inhibition for COC(=O)c1ccc2nc(-c3ccc(C)cc3)c(Cc3ccc(OC)cc3C)n2c1 please.
output: 12.6

input: Report inhibition for COc1cccc(-c2nn(-c3ccccc3)cc2/C=C(\C#N)C(=O)NCCCn2ccnc2)c1 please.
output: 2.7

input: Report inhibition for O=C(Nc1ccc(S(=O)(=O)Nc2nccs2)cc1)c1cc(-c2ccncc2)nc2ccccc12 please.
output: 44.5

input: Report inhibition for Cc1cc(C)c2nc(-c3cccnc3)cc(C(=O)Nc3ccc(S(=O)(=O)Nc4onc(C)c4C)cc3)c2c1 please.
output: 64

input: Report inhibition for Cc1ccc2nc(/C(C#N)=C\c3ccc(OC(=O)c4cccs4)cc3)[nH]c2c1 please.
output: 21
